- Tested on: Staphylococcus epidermidis
- Test Summary: Antibiofilm activity against Staphylococcus epidermidis GTC 18972 assessed as inhibition of biofilm formation at 50 ug/ml
- Type: functional
Observed Property: inhibition at 50 µg/mL (%)
Report only the number, with the unit % understood.

Please review the following examples before continuing.
Molecule	Observed Property	Display Unit	Value Observed
O=C(NCC(O)c1cnc2ncccn12)c1cc(Br)c[nH]1 (centres undefined)	inhibition at 50 µg/mL	%	-9.3
O=C(NCC(=O)c1cnc2ncccn12)c1cc(Br)c[nH]1	inhibition at 50 µg/mL	%	-9.93
O=C(NC/C=C/c1cnc2ncccn12)c1cc(Br)c(Br)[nH]1	inhibition at 50 µg/mL	%	-16.6

Tested system Staphylococcus epidermidis; inhibition at 50 µg/mL recorded for O=C(NCCC(O)c1cnc2ncccn12)c1ccc[nH]1 (centres undefined) was 18.1
